Test System: Claudin18.2-His protein (human)
Test Summary: indirect ELISA on coated Claudin18.2-His
Reported EC50 values for a set of binders
Reply numerically in µg/mL, unit not repeated.

Prompt: Please give the documented EC50 of 394C2G5 (antibody, V domains shown) VH: DVQLVESGGGLVQPGGSRKLSCAASGFTFSGFGMHWIRQTPEKGLEWVAYVSSGSRPIYYADTVKGRFTISRDNPKNTLFLQMTSLRSEDTAMYFCARFYYGNSFDHWGQGTLVTVSA VL: DIVMTQSPSFLTVTAGEKVTMSCKSSQSLLNSGNQKNYLTWYQQKPGQPPKLLIYWASTRESGVPDRFTGSGSGTDFTLTINNVQAEDLALYYCQNAYSFPLTFGAGTKLELT
Response: 0.00846

Prompt: Tell me EC50 reported for 234B9D4 (antibody, V domains shown) VH: EIQLQQSGPDLMKPGSSVKISCTASGYSFTSYYIHWVKQSHGKTLEWIGYIDPFNGGTRYNQKFEGKAALTVDKSSTTAYMHLTSLTSDDSAVYYCASLRFFTYWGQGTLVTVSA VL: DIVMTQSPSSLTVTAGEKVTMTCKSSQSLLNSGNQENYLTWYQQKPGQPPKLLISRASTRQSGVPDRFTGSGSGTDFTLTISSVQAEDLAVYYCQNDYSYPLTFGAGTKLELK
Response: 0.0405

Now look at this entry.
Prompt: Given 423C10E1 (antibody, V domains shown) VH: DVQLVESGGGLVQPGGSRKLSCVTSGFTFSSFGMHWVRQAPEKGLEWVAFISGGGSPIFYADSVKGRFTVSRDNPKNTLFLQMTGLRSEDTAMYFCARFYFGNSFAYWGQGTLVTVSA VL: DIVMTQSPSSLTVTAGEKVTMNCRSSQSLFNSGNQKNYLTWYQQKPGQSPKLLIYWASTRESGVPVRFTGSGSGTDFTLTISSVQAEDLAVYYCQTSFNYPLTFGPGTKLELK , respond with its EC50.
Response: 0.0297

Where do these numbers come from? They come from patent US20220073643A1.
